Test system PARP7 (Homo sapiens (Human)), log10 IC50 listed for each of the molecules.
Scale type: logarithmic (base 10). Underlying IC50 unit: nM.

| ITEM SMILES | REPORTED METRIC | ASSAY RESULT |
| --- | --- | --- |
| N[C@H]1C[C@@H](CCC(=O)N2CCN(c3ncc(C(F)(F)F)cn3)CC2)N(c2cc(C(F)(F)F)c(=O)[nH]n2)C1 | log10 IC50 | 1.57 |

What value of log10 IC50 has been recorded for this entry: `O=C([C@@H]1C[C@H](Oc2ccccc2)CN1c1cc(C(F)(F)F)c(=O)[nH]n1)N1CCN(c2ncc(C(F)(F)F)cn2)CC1`
0.60

What do you get for `C[C@@H]1C[C@@H](CCC(=O)N2CCN(c3ncc(C(F)(F)F)cn3)CC2)N(c2cc(C(F)(F)F)c(=O)[nH]n2)C1` ?
1.41

Next up: `O=C(CC[C@@H]1C[C@H](N2CCOCC2)CN1c1cc(C(F)(F)F)c(=O)[nH]n1)N1CCN(c2ncc(C(F)(F)F)cn2)CC1`
0.63

Further, for `CO[C@@H]1C[C@@H](CCC(=O)N2CCN(c3ncc(C(F)(F)F)cn3)CC2)N(c2cc(C(F)(F)F)c(=O)[nH]n2)C1` ?
0.85

Would you kindly repeat that for `O=C(CC[C@@H]1C[C@@H]2CCC[C@@H]2N1c1cc(C(F)(F)F)c(=O)[nH]n1)N1CCN(c2ncc(C(F)(F)F)cn2)CC1` ?
0.32
